Measured values drawn from patent US8093265B2 for this set.

# Assay overview: Plasma protein binding by equilibrium dialysis, human plasma
# Type: in vitro ADME
# Applied conditions: pH 7.4, equilibrium dialysis 16 hr at 37° C., % Bound
Reported property: fraction unbound at 16 hr, 1 μg/mL

input_smiles=C[C@H](CO)n1ccc2c(NC(=O)Cc3ccc(C(F)(F)F)c(F)c3)c(Cl)ccc2c1=O reported_property="fraction unbound at 16 hr, 1 μg/mL" observed="< 0.1"
input_smiles=Cc1ccc2c(=O)n([C@H](C)CO)ccc2c1NC(=O)Cc1ccc(C(F)(F)F)cc1 reported_property="fraction unbound at 16 hr, 1 μg/mL" observed="0.1 to 0.24"
input_smiles=O=C(Cc1ccc(C(F)(F)F)c(F)c1)Nc1c(Cl)ccc2c(=O)n(CCO)ccc12 reported_property="fraction unbound at 16 hr, 1 μg/mL" observed="< 0.1"
input_smiles=Cc1ccc2c(=O)n([C@H](C)CO)ccc2c1NC(=O)Cc1ccc(F)c(C(F)(F)F)c1 reported_property="fraction unbound at 16 hr, 1 μg/mL" observed="< 0.1"
